- PROTOCOL: yeast display, Sf9 membrane polyspecificity reagent, FACS + sequencing; frameworks hold sequencing errors
OUTCOME MEASURE: polyreactivity (PSR sort gate)

QVQLVESGGGLVQAGGSLRLSCAASYNAMGWYRQAPGKEREFVAGITQSGGSTYYADSVKGRFTISRDNAKNTVYLQMNSLKAEDTAVYYCAKRLYKWGQGTQVTVSS ... low polyreactivity
QEQLQESGGGLVQAGGSLRLSCAASGTITVLYKMGWFRQAPGKEREFVASINYGTSTYYADSVKGRFTVSRDSAKNTVYLQMNSLKPEDTAVYYCAAAYRWQDVYRYWGQGTQVTVSS ... low polyreactivity
QVQLVESGGGLVQAGGSLRLSCAASGRTFRTNAMGWYRQAPGKERELVAAIRASTGSTYYADSVKGRFTISRDNAKNTVYLQMNSLKPEDTAVYYCAATTQGVRYGYWGQGTQVTVSA ... high polyreactivity
HVQLVESGGGLVQAGGSLRLSCAASGFSFDPYAMGWYRQAPGKERELVAAISDGGSTNYPDSVKGRFTISRDNAKNTVYLQRNSLKPEDTAVYYCAVEYWYVRGTFDDWGQGTQVTVSS ... low polyreactivity
QVQLVESGGGLVQAGGSLRLSCAASGRTLGGYAMGWYIQATGKERELVAAITRRGGSTYYADSVKGRFTISRDNAKNTVYLQMNSLKPEDTAVYYCAARWYARSLTRFNYWGQGTQVTVSS ... high polyreactivity
QVQLVESGGRLVQAGGSLRLSCAASGFTFLYYAMGWYRQAPGKERELVATITRTSRTYYADSVKGRFTISRDNAKNTVYLQMNSLKPEDTAVYYCAADTPYLRRRLGMDYWGQGTQVTVSS ... high polyreactivity
QVQLVESGGGLVQAGGSLRLSCAASGSIFYVNTMGWYRQAPGKERELVAVIDYGGDSTYYADSVKGRFTISRDNAKNTVYLQMNSLKPEDTAVYYCAADAWLLPYNYWGQGTQVTVSS ... low polyreactivity
QVQLVESGGGLVQAGGSLRLSCAASGSIFSRYAMGWSRQAPGKERELVAAISKSGGTTYYADSVKGRFTISRDNAKNTVYLQMNSLKPEDTAVYYCNAKRYRNGSIGMGYWGQGSQVTVSS ... high polyreactivity
QVQLVESGGGLVQAGGSLRLSCAASGRTFPFYAMGWYRQAPGKERELVAAINSGGITNYADSVKGRFTISRDNAKNTVYLQMNSLKPEDTAVYYCAAKTAFYRERGYWGQGTQVTVSS ... low polyreactivity
QVQLVESGGVLVQAGGSLRLSCAASGSLFILYALGWYRQEPGKEREFVASISRSGSTYYADSVKGRFTISRDNAKNSVYLQMNSLKPEDTAVYYCAADYRQFYRYVDYEYWGQGTQVTVSS ... low polyreactivity

Okay, next one:
Lab book: polyreactivity (PSR sort gate) of QVQLVESGGGLVQAGGSLRLSCADSGSILIYNAMGWYRQAPGKERELVAGISRRGASTYYADSVKGRFTISRDNAKNTVSLQMNSLKQEDTAVYYCAALGKYIVAWSGDYWGQGTQVTVSS noted as low polyreactivity

---

- PROTOCOL: yeast display, Sf9 membrane polyspecificity reagent, FACS + sequencing; frameworks hold sequencing errors
OUTCOME MEASURE: polyreactivity (PSR sort gate)

QVQLVESGGGLVQAGGSLRLSCAACGSIFVRNTMGWDRQAPGKERELVASIDWSGGITSYADSVKGRFTISRDNAKNTVYLQMNIRKPEDTAVYFCNAVFLYPFNVPTMEYWGQGTQVTVSS ... low polyreactivity
QVQLVESGGGLVQAGGSLRLSCAASGSTFYKYAMGWYRQAPGKERELVASISRSGGSTSYADSVKGRFTISRDNAKNTVYLHMNSLIPEDTAVYYCAATWRQHPGSMGYWGQGTQVTVSS ... high polyreactivity
QVQLVESGGGLVQAGGSLRLSCAASGSIFSRYAMGWYRQAPGKERELVAAISRRRGTTYYADSVKGRFTISRDNAKNTVYLHMNSLKTEDTAVYYCAAVFVTQSFIYDYYYWGQGTQVTVSS ... high polyreactivity
QVQLVESGGGLVQAGGSLRLSCAASGFIFGYNAMGWYRQAPGKERELVASITYRGGRTYADSVKGRFTISRDNAKNTVYLQMNSLKPEDTAVYYCAAVRHVYVGGFDYWGQGTQVTVSS ... high polyreactivity

Lab book: polyreactivity (PSR sort gate) of QVQLVESGGGLVQAGGSLRLSCAASGFIFGWNAMGWYRQAPGKVREFVAAITSSGTSTYYADSVKGRFTISRDNAKNTVYLQMNSLKPEDTAVYYCAADVIFTWLAYSTEYDYWGQGTQVTVSS noted as low polyreactivity

---

- PROTOCOL: yeast display, Sf9 membrane polyspecificity reagent, FACS + sequencing; frameworks hold sequencing errors
OUTCOME MEASURE: polyreactivity (PSR sort gate)

A selection of reference data follows.
QVQLVESGGGLVQAGGSLRLSCAASGFIFAINAMGWYRQAPGKERELVAAITSSGGSTYYADSVKGRFTISRDNAKNTVYLQMNSLKPEDTAVYYCAAPQGNPSQDWEDYWGQGTQVTVSS ... low polyreactivity
QVQLVESGGGLVQAGGSLRLSCAASGFTFEVYAMGWYIQAPGKERELVAAITSSGGRTYYADSVKGRFTISRDNAKNTVYLQMNSLKPEDTAVYYCNARSKQPVYPYVQSLNYWGQGTQVTVSS ... high polyreactivity
QVQLVESAGGLVQAGGSLRLSCAASGYTLYLNAMGWYRQAPGKERELVARISGGGSTNYADSVKGRFTISRDNAKNTVYLQMNSLKPEDTAVYYCAASIFAYGYRSFQLDYWGQGTQVTVSS ... low polyreactivity
QVQLVESGGGLVQAGGSLRLSCAASGSIFYFYAMGWYRQAPGKERELVATITRRTGRTYYADSVKGRFTISRDNAKNTVYLQMNSLKPEDTAVYYCAARPKGPYGVWYNYWGQGTQVTVSS ... high polyreactivity
QVQLVESGGGLVQAGGSLRLSCAASGRIFRHNTMGWYRQAPGKERELDAGITASGGDTYYADSVKGRFTISRDNAKNTVYLQMNSLKPEDTAVYYCAKRGQSYTYRRYDYWGQGTQVTVSS ... low polyreactivity

Hey, quick one: what's polyreactivity (PSR sort gate) for each of these?
1. QVQLVESGGGLVQAGGSLRLSCAASGRIFSSYAMGWYRQAPGKEREFVASITWRGGSTYYADSVKGRFTISRDNAKNTVYLQMNSLKPEDTAVYYCAADFYWKTYGYRTHEYDYWGQGTQVTVSS
2. QVQLVESGGGLVQAGGSLRLSCAASGSIFDRYAMGWYRQAPGKERELVAAITGSGGSTYYADSVKGRFTISRDNAKNTVYLQMNSLKPEDTAVYYCNARARGAYVRYGYWGQGTQVTVSS
3. QVQLVESGGGLVQAGGSLRLSCAASGRIFHRYAMGWYRQAPGKERELVASISRGDSTNYADSVKGRFTISRDNAKNTVYLQMNSLKPEDTAVYYCAAVPRRSGHQRWGATYYYWGQGTQVTVSS
4. QVQLVESGGGLVQAGGSLRLSCAASGSIFLAYPMGWYRQAPGKEREFVAAISFSDGSTYYADSVKGRFTISRDNAKNTVYLQMNSLKPEDTAVYYCNKRASPDDYDYWGQGTQVTVSS

high polyreactivity
high polyreactivity
high polyreactivity
low polyreactivity

Hey, quick one: what's polyreactivity (PSR sort gate) for each of these?
1. QVQLVESGGGLVQAGGSLRLSCAASGFIFPRNVMGWYRQAPGKERELVAAISRSGGSTYYADSVKGRFTISPDNVKNTVFLQMNSLIPEDTAVYYFAKRTFYNGEYWGQGTQVTVSS
2. QVQLVESGGGLVQAGGSLRLSCAASGLTFTGNAMGWYRQAPGKEREFVAAIRWSAGSTYYADSVKGRFTISRDNAKNTVYLQMNSLKPEDTAVYYCNAALNVSGHYPNDYWGQGTQVNVSS

["low polyreactivity", "low polyreactivity"]

---

- PROTOCOL: yeast display, Sf9 membrane polyspecificity reagent, FACS + sequencing; frameworks hold sequencing errors
OUTCOME MEASURE: polyreactivity (PSR sort gate)

QVQLVESGGGLVQAGGSLRLSCAASGRIIATNAMGWNRQAPGKERELVATITRSAGRTYYADSVKGRFTISRDNAKNTVYLHMNSLKPEDTAVYYCAASYWYTEPGYREYDYWGQGTQVTVSS ... low polyreactivity
QVQLEESGGCLVQAGGRIRLSCAASGSIFGYYAMGWYRQAPGKERELVADISYTGVSTYYADSVKGRFTISRDNAKNTVYLQMNSLKPEDTAVYYCAADWVYPDYSWYSYTDFDYWGQGTQVTVSS ... low polyreactivity
HVQLVESGGGLVQAGGSLRLSCAASGSTFTLNVMGWYRQAPGKERELVAGISKRGGNTYYADSVKGRFTISRDNAKNTVYLQMNSLKPEDTAVYYCATYSRIFKWEYYYWGQGTQVTVSS ... high polyreactivity
QVQLVESRGGLVQAGGSLRLSCPDSGYIFFTNSMGWYRQEPGKERELVAAISSAGRTKYADSVKGRFTISRDNAKNTVYLQMNSLKPEDTAVYYCNKAFYYLWGTGYDYWGQGTQVTVSS ... low polyreactivity
QVQLVESGGGLVQAGGSLRLSCAASGSTFVYYDMGWYRQAPGKERELVAAISRGGGSTYYADSVKGRFTISRDNAKNTVYLQMNSLKPEDTAVYYCAAVAGYRYYWGQGTQVTVSS ... high polyreactivity

Hey, quick one: what's polyreactivity (PSR sort gate) for each of these?
1. QVQLEESGGGLGQAGGSLRLTCAASGSIFRQYAMGWYRQAPGKERDLVATISRSGGSTYYADSVKGRFTISRDNAKNTVYLQLNSLKPEDTAVYYCAASRYNKSYREWWVGSWGQGTQVTVSS
2. QVQLVESGGGLVQAGGSLRLSCDASGSTFYSYTMGWSRQAPGKERELVATISWSGSSTYDADSVKGRFTISRDNAKNTVYLQMNSLTPEDTAVYYSAAVHYDKSAYWWWYNYWGQGTLVTVSS
3. QVQLVESGGGLVQAGGSLRLSCAASGTTFPRYAMGWYRQAPGKERELVAAISSGGSTYYADSVKGRFTISRDNAKNTVYLQMNRLKPEDTAVYYCNARRSRSRYDYWGQGTQVTVSS
4. QVQLVESGGGLVQAGGSLRLSCAASGSTFNFNAMGWYRQAPRKERELVAAISSSGGSTYYADSVKGRFTISRDNAKNTVYLQMNSLKPEDTAVYYCATVRRKSPLYYYWGQGTQVTVSS
5. QVQLVESGGGLVQAGGSLRLSCAASGRTFQYYAMGWYRQAPGKERELVAAITSGGSTYYADSVKGRFTISRDNAKNTVYLQMNSLKPEDTAVYYCAASFYYSGHDDYWGQGTQVTVSS

["high polyreactivity", "low polyreactivity", "high polyreactivity", "high polyreactivity", "low polyreactivity"]

Lab book: polyreactivity (PSR sort gate) of QVQLVESGGGLVQAGGSLRLSCAASGSTYAFYAMGWYRQAPGKERELVAAITSGGSTKYADSVKGRFTISRDNAKNTVYLQMNSLKPEDTAFYYCAARSRWSKLFRYDYWGQGTQVTVSS noted as high polyreactivity
